system.under.test: T1, 15N-labeled PHear (NECAP 1 PHear domain, GST cleaved) (mouse, UniProt Q9CR95 1-133)
T1 chain: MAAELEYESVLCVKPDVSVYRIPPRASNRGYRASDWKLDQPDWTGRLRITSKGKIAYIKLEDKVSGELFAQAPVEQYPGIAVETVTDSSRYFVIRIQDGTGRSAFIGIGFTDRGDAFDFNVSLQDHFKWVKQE
procedure.text: NMR; I106 peak
Where no end group is shown, it is not given here.
quantity.kind: Kd (µM)
# unit: µM | format: bare number

Recorded Kd (binder Ac-SQGDLLGDLLNLDLPPVN (peptide from the linker of β2-adaptin; the printed peptide has no G there; also called unlabeled β2-linker; source: synthetic peptide (Sheldon Biotechnology Center, McGill University), HPLC purified) [β2-linker peptide (Ac-SQGDLLGDLLNLDLPPVN)] ): 420
